- Tested on: OVCAR-8 ovarian
- PROTOCOL TEXT: NCI tumour cell line growth inhibition, 48 h
MEASUREMENT KIND: TGI

compound="O=c1ccn(C2CC(O)C(CO)O2)c(=O)[nH]1 (centres undefined)" result="> 5000 µM"
compound=COc1nc(C#CC2(O)CCCCC2)nc(OC)n1 result="39.8 µM"
compound=C[C@H](CCC(=O)O)[C@H]1CC[C@@]2(C)[C@@H]3C(=O)C[C@H]4C(C)(C)[C@@H](O)CC[C@]4(C)[C@H]3C(=O)C[C@]12C result="> 100 µM"
compound="CC(C)OCC1CC(CC(=O)Nc2nncs2)C(=O)O1 (centres undefined)" result="> 100 µM"
compound=COc1cc2c(cc1OC)C(=O)/C(=C/c1ccc(Cl)cc1)CC2 result="> 10 µM"
compound=CN(C)C(=S)/N=c1\ssc(=S)n1Cc1ccccc1 result="17.7 µM"
compound=Cc1ccc(N2C(=O)CS/C2=C(\C#N)c2nc3ccccc3[nH]2)cc1 result="> 100 µM"
compound=CC(=O)Oc1ccc(-c2cc3ccccc3oc2=O)cc1 result="> 100 µM"
compound=Nc1cccc(/C=C/C(=O)N2CCN(CCOC(c3ccccc3)c3ccccc3)CC2)c1 result="35.6 µM"
compound=c1ccc(CN2CCC3(CC2)SSC2(CCN(Cc4ccccc4)CC2)S3)cc1 result="> 100 µM"
compound=S=C1N(/N=C/c2c3ccccc3cc3ccccc23)C(=Nc2ccccc2)C(=Nc2ccccc2)N1c1ccccc1 result="> 100 µM"
compound=c1csc(-c2cn3nc(-c4c[nH]c5ccccc45)sc3n2)c1 result="> 100 µM"
compound=CCn1c(-c2ccc(N=NNc3ccc(-c4n[nH]c(=S)n4CC)cc3)cc2)n[nH]c1=S result="6.96 µM"
compound="CCOC(=O)c1c(N)sc2c1C(C)(C(=O)OCC)CC2 (centres undefined)" result="> 100 µM"

###

- Tested on: U251 CNS
- PROTOCOL TEXT: NCI tumour cell line growth inhibition, 48 h
Let's look at some molecules and their measured TGI.
MEASUREMENT KIND: TGI

molecule="COc1cc(NC(C)CCCN)c2ncccc2c1 (centres undefined)" measurement_kind=TGI result="> 100 µM"
molecule=COc1cccc2c1Cc1cc(-c3ccccc3)[n+](C)n1-2 measurement_kind=TGI result="> 100 µM"
molecule=CC[C@@H]1CC[C@@H]2[C@H](CC[C@]3(C)[C@@H](OS(=O)(=O)c4ccc(C)cc4)CC[C@@H]23)[C@H]1COS(=O)(=O)c1ccc(C)cc1 measurement_kind=TGI result="> 100 µM"
molecule="CCCCCCC(=O)O[C@H]1CC[C@H]2[C@@H]3CCC4C/C(=N/NC(=O)c5cccc6c(=O)c7ccccc7[nH]c56)C=C(C)[C@]4(C)[C@H]3CC[C@]12C (some centres undefined)" measurement_kind=TGI result="> 25 µM"
molecule=C(=N\NC1=NCCN1)/c1ccc(-c2cn3cc(/C=N/NC4=NCCN4)ccc3n2)cc1 measurement_kind=TGI result="> 64.9 µM"
molecule="C=CCC(N(C)C(=O)[C@H](Cc1ccccc1)NC(=O)OCc1ccccc1)P(=O)(Oc1ccccc1)Oc1ccccc1 (some centres undefined)" measurement_kind=TGI result="> 100 µM"
molecule=O=C(Cn1c(=O)c(-c2ccccc2)nc2ccccc21)Nc1ccc(F)cc1 measurement_kind=TGI result="> 100 µM"
molecule=CCOC(=O)c1cc2c(n1Cc1cccc(OC)c1)-c1oncc1CCC2 measurement_kind=TGI result="> 100 µM"
molecule="COC(=O)C(C#CCCCCC#CC(NC(=O)OCc1ccccc1)(C(=O)OC)C(F)(F)F)(NC(=O)OCc1ccccc1)C(F)(F)F (centres undefined)" measurement_kind=TGI result="> 100 µM"

Data provenance: PubChem BioAssay (NCI)
